- System: Mus musculus
- Assay protocol: Antiinflammatory activity in mouse assessed as inhibition of PMA-induced ear edema at 25 ug/ear administered topically as single dose after PMA challenge and measured after 3 hrs and 20 mins
- Assay type: functional
- Condition context: in the assay text read “simultaneously with PMA” for “after PMA challenge”
Readings of inhibition (INH) for the listed compounds
Readout type: inhibition (INH)

{"Compound": "Cc1c(O)c(O[C@@H]2O[C@@H](C)[C@@H](O)[C@@H](O)[C@@H]2O)c2c3c1CCCC3CCC2 (some centres undefined)", "Observed measurement": "49%"}
{"Compound": "C[C@@H]1CC[C@@H]2CCCc3cc(O[C@@H]4O[C@@H](C)[C@@H](O)[C@@H](O)[C@@H]4O)c(O)c1c32 (relative stereo)", "Observed measurement": "50%"}
{"Compound": "C[C@@H]1O[C@@H](Oc2cc3c4c(c2O)C(C)(C)CCC4CCC3)[C@@H](O)[C@H](O)[C@@H]1O (some centres undefined)", "Observed measurement": "38%"}
{"Compound": "C[C@@H]1O[C@@H](Oc2cc3c4c(c2O)CCCC4CCC3)[C@@H](O)[C@H](O)[C@@H]1O (some centres undefined)", "Observed measurement": "34%"}

====

- Tested on: Mus musculus
- Assay protocol: Antiinflammatory activity in mouse assessed as inhibition of PMA-induced ear edema at 25 ug/ear administered topically as single dose after PMA challenge and measured after 3 hrs and 20 mins
- Assay type: functional
- Condition context: in the assay text read “simultaneously with PMA” for “after PMA challenge”
List of inhibition (INH) values.
Readout type: inhibition (INH)

{"Compound": "CC(C)=C[C@H]1C[C@H](C)[C@H]2CC[C@H](C)c3c(O[C@@H]4OC[C@@H](O)[C@H](O)[C@H]4O)c(O)c(C)c1c32 [PSEUDOPTEROSIN A]", "Observed measurement": "70%"}
{"Compound": "Oc1cc2c3c(c1OC1OC[C@@H](O)[C@H](O)[C@H]1O)CCCC3CCC2 (stereo not given in full)", "Observed measurement": "37%"}
{"Compound": "C[C@@H]1OC(Oc2c(O)cc3c4c2CCCC4CCC3)[C@@H](O)[C@H](O)[C@@H]1O (stereo not given in full)", "Observed measurement": "24%"}
{"Compound": "Oc1c(OC2OC[C@@H](O)[C@H](O)[C@H]2O)cc2c3c1CCCC3CCC2 (stereo not given in full)", "Observed measurement": "44%"}
{"Compound": "C[C@@H]1O[C@@H](Oc2cc3c4c(c2O)[C@@H](C)CC[C@@H]4CCC3)[C@@H](O)[C@H](O)[C@@H]1O (relative stereo)", "Observed measurement": "58%"}
